tested on: ERBB4; assay: KINOMEscan kinase binding assay; conditions: at 1 μM

{"columns": ["Compound", "% Ctrl"],
 "data": [
  ["C[C@@H]1COCc2nn(C)cc2-c2cc(Cl)c3c(c2)/C(=C/c2[nH]ccc2C(=O)N1)C(=O)N3 [Cpd. 4]", "100%"],
  ["Cc1cc2c([nH]1)/C=C1\\C(=O)Nc3c(Cl)cc(cc31)-c1cn(C)nc1COC[C@@H](C)N(C)C2=O [Cpd. 5]", "97%"],
  ["Cc1cc2c([nH]1)/C=C1\\C(=O)Nc3ccc(cc31)-c1c(nn(C)c1C)OCCCN(C)C2=O [Cpd. 1]", "95%"],
  ["Cc1cc2c([nH]1)/C=C1\\C(=O)Nc3c(Cl)cc(cc31)-c1cn(C)nc1COC[C@@H](C)NC2=O [Cpd. 3]", "96%"],
  ["Cc1cc2c([nH]1)/C=C1\\C(=O)Nc3ccc(cc31)-c1c(nn(C)c1C)COCCN(C)C2=O [Cpd. 2]", "67%"]
]}

Where do these numbers come from? They come from patent US20250074920A1.
